Assay: Kinetic solubility of compound in simulated intestinal fluid at pH 6.6 by HPLC analysis
READOUT: solubility kinetic (µM)
Give bare numbers, in µM.

CO[C@](C(=O)Nc1c2c(nn1-c1ccc(Br)cc1)CSC2)(c1ccccc1)C(F)(F)F; 2.55
O=C1S/C(=C\c2ccc(OCc3ccc(B(O)O)cc3)cc2)C(=O)N1Cc1ccc(F)cc1; 1.05
O=C(Nc1c2c(nn1-c1ccc(Br)cc1)CSC2)c1cc(Cl)cc(Cl)c1; 4.18

Then this compound:
I would be grateful if you could share the reported solubility kinetic for CCc1nc2c(C)cc(N3CCN(CC(=O)N4CC(O)C4)CC3)cn2c1N(C)c1nc(-c2ccc(F)cc2)c(C#N)s1 [ZIRITAXESTAT] .
97

====

Exercise: state measured pIC50 for each of the compounds provided.
Target: Autotaxin (Mus musculus, UniProt Q9R1E6)
One number for each entry, as −log10 of the molar value.

I would be grateful if you could provide pIC50 for each of the following entries.
1. O=C(Nc1c2c(nn1-c1ccc(Cl)c(Cl)c1)CSC2)c1cccc2ccccc12
2. NS(=O)(=O)c1ccc(-n2nc3c(c2NC(=O)c2cccc4ccccc24)CSC3)cc1

[4.40, 4.10]

====

Experiment: Kinetic solubility of compound in simulated gastric fluid at pH 1.7 by HPLC analysis
Exercise: state measured log10 of solubility kinetic for each of the compounds provided.
Please note: log10 values; quantity solubility kinetic; unit µM.

O=C(Nc1c2c(nn1-c1ccc(Br)cc1)CSC2)c1cc(Cl)cc(Cl)c1; 0.70
O=C(CCN1CCN(C(=O)OCc2cc(Cl)cc(Cl)c2)CC1)c1ccc2[nH]c(=O)oc2c1; 1.19
O=C(Nc1c2c(nn1-c1ccc([N+](=O)[O-])cc1)CSC2)c1cccc2ccccc12; 0.44
O=C1S/C(=C\c2ccc(OCc3ccc(B(O)O)cc3)cc2)C(=O)N1Cc1ccc(F)cc1; 0.49
CCc1nc2c(C)cc(N3CCN(CC(=O)N4CC(O)C4)CC3)cn2c1N(C)c1nc(-c2ccc(F)cc2)c(C#N)s1; 2.30

Then this compound:
I would be grateful if you could share the reported log10 of solubility kinetic for CO[C@](C(=O)Nc1c2c(nn1-c1ccc(Br)cc1)CSC2)(c1ccccc1)C(F)(F)F .
1.22

====

Biological target: Autotaxin (Homo sapiens, UniProt Q13822)
Assay: Inhibition of human ATX using LPC as substrate preincubated with compound for 15 mins followed by substrate addition measured after 30 mins by Amplex Red reagent based fluorescence analysis
Kindly apply the following: 1 (yes) if IC50 is less than 10 µM, 0 (no) in every other case.

Worked examples, 7 molecules total:
O=C(CN1CCN(C(=O)c2cc(Cl)cc(Cl)c2)CC1)Nc1ccn(-c2ccc(Br)cc2)n1; 0 (no)
COc1ccc(-n2nc3c(c2NC(=O)c2cccc4ccccc24)CSC3)cc1; 0 (no)
CO[C@](C(=O)Nc1c2c(nn1-c1ccc(Br)cc1)CSC2)(c1ccccc1)C(F)(F)F; 1 (yes)
O=C(Nc1c2c(nn1-c1ccc(Br)cc1)CSC2)c1ccc2ccccc2c1; 0 (no)
O=C(Nc1c2c(nn1-c1ccc(Br)cc1)CSC2)c1cccc2ccccc12; 1 (yes)
O=C(c1cc(Cl)cc(Cl)c1)N1CCN(c2c3c(nn2-c2ccc(Br)cc2)CSC3)CC1; 0 (no)
O=C(Nc1c2c(nn1-c1ccc(Br)cc1)CS(=O)(=O)C2)c1cccc2ccccc12; 0 (no)

Consider the molecule O=C(Nc1c2c(nn1-c1ccc(Br)cc1)CSC2)c1cc(F)cc(C(F)(F)F)c1 . Is its IC50 strictly less than 10 µM?
0 (no)

====

Exercise: state measured IC50 for each of the compounds provided.
Target: UniProt Q9R1E6
Numbers only, in µM.

I would be grateful if you could provide IC50 for each of the following entries.
1. O=C(Nc1c2c(nn1-c1ccc(C(F)(F)F)cc1)CSC2)c1cccc2ccccc12
2. O=C(Nc1c2c(nn1-c1ccc([N+](=O)[O-])cc1)CSC2)c1cccc2ccccc12
3. O=C(Nc1c2c(nn1-c1cnccn1)CSC2)c1cccc2ccccc12

[46.6, 38.4, 1.8]
